biological target: Adenosine receptor A2b (Homo sapiens, UniProt P29275); assay: Displacement of [3H]PSB-603 from recombinant human adenosine receptor A2b expressed in CHO cell membranes
Sequence (P29275 whole entry): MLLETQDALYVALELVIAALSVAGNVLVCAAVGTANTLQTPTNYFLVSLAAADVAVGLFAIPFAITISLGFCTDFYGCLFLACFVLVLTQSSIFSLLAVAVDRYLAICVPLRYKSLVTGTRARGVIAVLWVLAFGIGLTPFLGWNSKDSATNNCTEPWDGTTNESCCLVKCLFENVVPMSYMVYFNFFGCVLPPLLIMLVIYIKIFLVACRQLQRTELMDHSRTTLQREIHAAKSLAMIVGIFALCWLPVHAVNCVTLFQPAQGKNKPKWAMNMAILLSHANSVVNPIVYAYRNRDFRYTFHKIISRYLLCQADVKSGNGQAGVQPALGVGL
MEASURED_METRIC: Ki

Study these solved cases before continuing.
- ITEM_SMILES: "CCn1c(=O)c2c(nc3n2CCCN3c2ccc(O)cc2)n(CC)c1=O"
  Ki: "> 1000 nM"
- ITEM_SMILES: "Cn1c(=O)c2c(nc3n2CCN(CCc2ccc(OCCN4CCOCC4)cc2)C3)n(C)c1=O"
  Ki: "> 1000 nM"
- ITEM_SMILES: "CCCn1c(=O)c2c(nc3n2CCCN3c2ccc(OCCN3CCCC3)cc2)n(CCC)c1=O"
  Ki: "> 1000 nM"

For each of the items listed, what is its Ki?
1. CCCn1c(=O)c2c(nc3n2CCCN3CCc2ccc(O)cc2)n(CCC)c1=O
2. CCCn1c(=O)c2c(nc3n2CCCN3c2ccc(OCCN3CCOCC3)cc2)n(CCC)c1=O
3. CCCCn1c(=O)c2c(nc3n2CCCN3c2ccc(OCCN(CC)CC)cc2)n(CCCC)c1=O
4. CCN(CC)CCOc1ccc(N2CCCn3c2nc2c3c(=O)n(C)c(=O)n2C)cc1
5. Cn1c(=O)c2c(nc3n2CCCN3c2ccc(OCCN3CCCCC3)cc2)n(C)c1=O
6. Cn1c(=O)c2c(nc3n2CCN(CCc2ccc(O)cc2)C3)n(C)c1=O

Marked response:
["663 nM", "> 1000 nM", "> 1000 nM", "> 1000 nM", "> 1000 nM", "> 1000 nM"]

Hi, could you look up Ki for each item in my list?
1. CN(C)CCOc1ccc(CCN2CCn3c(nc4c3c(=O)n(C)c(=O)n4C)C2)cc1
2. CCCn1c(=O)c2c(nc3n2CCCN3CCc2ccc(OCCN3CCOCC3)cc2)n(CCC)c1=O
3. CCCCn1c(=O)c2c(nc3n2CCCN3c2ccc(OCCN3CCCCC3)cc2)n(CCCC)c1=O

Marked response:
["> 1000 nM", "853 nM", "> 1000 nM"]

----------
molecular target: Adenosine receptor A2b (Homo sapiens); assay: Displacement of [3H]PSB-603 from recombinant human adenosine receptor A2b expressed in CHO cell membranes at 1 uM
Note to self: class = bucket of inhibition, per range 1 = under 10%, range 2 = from 10% up to 30%, range 3 = 30% and over

Worked cases, answers included:
- ITEM_SMILES: "CCn1c(=O)c2c(nc3n2CCCN3c2ccc(O)cc2)n(CC)c1=O"
  EXPERIMENTAL_TARGET: "Adenosine receptor A2b (Homo sapiens)"
  GROUP_LABEL: "range 3"
- ITEM_SMILES: "CCN(CC)CCOc1ccc(CCN2CCCn3c2nc2c3c(=O)n(C)c(=O)n2C)cc1"
  EXPERIMENTAL_TARGET: "Adenosine receptor A2b (Homo sapiens)"
  GROUP_LABEL: "range 1"
- ITEM_SMILES: "Cn1c(=O)c2c(nc3n2CCCN3c2ccc(OCCN3CCCCC3)cc2)n(C)c1=O"
  EXPERIMENTAL_TARGET: "Adenosine receptor A2b (Homo sapiens)"
  GROUP_LABEL: "range 1"
- ITEM_SMILES: "CCCn1c(=O)c2c(nc3n2CCCN3c2ccc(OCCN(C)C)cc2)n(CCC)c1=O"
  EXPERIMENTAL_TARGET: "Adenosine receptor A2b (Homo sapiens)"
  GROUP_LABEL: "range 2"
- ITEM_SMILES: "CCCCn1c(=O)c2c(nc3n2CCCN3c2ccc(O)cc2)n(CCCC)c1=O"
  EXPERIMENTAL_TARGET: "Adenosine receptor A2b (Homo sapiens)"
  GROUP_LABEL: "range 3"

Exam item: Category of CCCCn1c(=O)c2c(nc3n2CCCN3CCc2ccc(OCCN3CCOCC3)cc2)n(CCCC)c1=O :
Marked response: range 3

Exam item: Could you tell me which band Cn1c(=O)c2c(nc3n2CCCN3CCc2ccc(OCCN3CCCC3)cc2)n(C)c1=O belongs to?
Marked response: range 2

----------
biological target: Adenosine receptor A3 (Homo sapiens); test: Displacement of [3H]PSB11 from recombinant human adenosine receptor A3 expressed in CHO cell membranes at 1 uM
MEASURED_METRIC: inhibition

In the examples that follow, each entry is paired with its recorded inhibition.
- ITEM_SMILES: "Cn1c(=O)c2c(nc3n2CCN(CCc2ccc(OCCN4CCOCC4)cc2)C3)n(C)c1=O"
  EXPERIMENTAL_TARGET: "Adenosine receptor A3 (Homo sapiens)"
  MEASURED_METRIC: "inhibition"
  ENDPOINT_RESULT: "3%"
- ITEM_SMILES: "CCCn1c(=O)c2c(nc3n2CCCN3c2ccc(OCCN3CCOCC3)cc2)n(CCC)c1=O"
  EXPERIMENTAL_TARGET: "Adenosine receptor A3 (Homo sapiens)"
  MEASURED_METRIC: "inhibition"
  ENDPOINT_RESULT: "23%"

Parameters: items (list). Returns: inhibition for each item.
1. CCCn1c(=O)c2c(nc3n2CCCN3c2ccc(OCCN3CCCCC3)cc2)n(CCC)c1=O
2. CCCCn1c(=O)c2c(nc3n2CCCN3CCc2ccc(OCCN(CC)CC)cc2)n(CCCC)c1=O
3. Cn1c(=O)c2c(nc3n2CCN(CCc2ccc(OCCN4CCCCC4)cc2)C3)n(C)c1=O
4. CCN(CC)CCOc1ccc(N2CCCn3c2nc2c3c(=O)n(C)c(=O)n2C)cc1

Marked response:
["29%", "75%", "0%", "3%"]

----------
So I've got a bunch of compounds here, and I need their inhibition values.
target: Adenosine receptor A2b (Homo sapiens); test: Displacement of [3H]PSB-603 from recombinant human adenosine receptor A2b expressed in CHO cell membranes at 1 uM
Answers are plain numbers, in %.

Check out these entries, answers already filled in.
- ITEM_SMILES: "CCCn1c(=O)c2c(nc3n2CCCN3c2ccc(O)cc2)n(CCC)c1=O"
  inhibition [%]: 20
- ITEM_SMILES: "Cn1c(=O)c2c(nc3n2CCCN3c2ccc(OCCN3CCOCC3)cc2)n(C)c1=O"
  inhibition [%]: -7
- ITEM_SMILES: "CCCn1c(=O)c2c(nc3n2CCCN3c2ccc(OCCN3CCCC3)cc2)n(CCC)c1=O"
  inhibition [%]: 10

Attention now shifts to the item below.
Exam item: Report measured inhibition; entry is CCCCn1c(=O)c2c(nc3n2CCCN3c2ccc(OCCN(C)C)cc2)n(CCCC)c1=O
Marked response: 40
